B1: ANKRD40 (parent)
chain: VCCCELGVNPDQVEKIRKLPNTLL

variants of: B1; experiment: protein stability index of a GFP-peptide fusion (GPS, HEK-293T) (PSI 1-6); higher = more stable; conditions: c terminus: a fixed tail appended;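 note: lentivirally expressed fusions sorted by FACS into six bins by GFP to DsRed ratio, PSI derived from sequencing read proportions per bin multiplied by bin number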
// FALSE strictly below 2 in protein stability index; TRUE otherwise

Here's what some known entries look like.
INSERT INTO results (variant_descriptor, qualitative_label) VALUES
  ('L19T', 'TRUE'),
  ('R17W', 'FALSE'),
  ('P10F', 'TRUE'),
  ('V8G', 'TRUE'),
  ('N21S', 'FALSE'),
  ('C2W', 'FALSE'),
  ('K15Q', 'TRUE'),
  ('D11G', 'TRUE'),
  ('V8D', 'TRUE'),
  ('V8R', 'FALSE');

Hi team, for "K18R" , is the recorded protein stability index at or above 2?
TRUE

Hi team, for "C4I" , is the recorded protein stability index at or above 2?
TRUE

Textbook exercise: given the entry "Q12D" , state whether its protein stability index is greater than or equal to 2.
TRUE

Test whether the variant "I16Y" records protein stability index of 2 or higher.
FALSE

Is it the case that "L6W" has protein stability index reaching or exceeding 2?
FALSE

Record "V13W" ; criterion: protein stability index no lower than 2. Met?
TRUE

Could you please find out whether "D11N" has protein stability index that meets 2 or exceeds it?
FALSE

Reported protein stability index at or above 2? "L19K"
TRUE

Hi team, for "E5V" , is the recorded protein stability index at or above 2?
FALSE

Does the reported protein stability index for "C3G" fall at or above the 2 mark?
TRUE

Given the entry "L19E" , answer whether its protein stability index meets or surpasses 2.
TRUE

Please check the record "N9Q" and state if its protein stability index is at or above 2.
FALSE

Check this variant for protein stability index at or above 2: "Q12L"
TRUE

Hi, just wondering whether "D11V" shows protein stability index of 2 or higher.
FALSE

Reported protein stability index reaches at least 2 for "Q12S" ?
TRUE

Can "T22I" be said to have protein stability index at or above 2?
TRUE

Could you verify whether the entry "C2A" shows protein stability index of no less than 2?
TRUE

Please tell me: is the variant "D11Q" at or over 2 in terms of protein stability index?
FALSE

Check if protein stability index >= 2 (inclusive). Item: "V13L"
FALSE

Determine whether measured protein stability index meets or exceeds 2 for "V13N"
TRUE

Is reported protein stability index greater than or equal to 2 here: "D11S"
FALSE

Check the entry "K18Q" : does protein stability index equal or exceed 2?
FALSE

Tell me whether protein stability index is at least 2 here: "V13M"
FALSE
